# Lookup of reported microsomal CLint at 1 μM keyed by entry
# Experimental details: Microsomal stability assay, mouse liver microsomes (MLM)
# Format: in vitro ADME
# Condition set: 0.5 mg/mL protein, 1 μM substrate, 37° C.
Please state the figure in µL/min/mg; there is no need to write the unit.

Completed entries (count: 3):
| Molecule | Val |
| --- | --- |
| O=C1CCc2c(Oc3ccc4c(c3)CC(c3nc(-c5ccnc(C6CC6)c5)c[nH]3)CO4)ccnc2N1 (stereo not shown) [Compound 119] | 35.8 |
| O=C1CCc2c(Oc3ccc4c(c3)CC(c3nc(-c5ccc(C(F)(F)F)nc5)c[nH]3)CO4)ccnc2N1 (stereo not shown) [Compound 127] | 13.4 |
| O=C1CCc2c(Oc3ccc4c(c3)CN(c3nc5ccccc5[nH]3)CC4)ccnc2N1 [Compound 159] | 34.4 |

Next, consider the following molecule.
Dear colleague, please send me the reported microsomal CLint at 1 μM for Cc1c[nH]c(-c2cc(Oc3ccc4c(c3)CC(c3nc(-c5ccccc5)c[nH]3)CO4)ccn2)n1 (stereo not shown) [Compound 143] when you can.
86.1
